molecular target: Human Cot (Homo sapiens (Human), UniProt P41279); assay: High Throughput Cot Biochemical Assay; details: IC50 HTRF, Cot HTRF (TR-FRET) biochemical assay
Sequence (P41279 30-397): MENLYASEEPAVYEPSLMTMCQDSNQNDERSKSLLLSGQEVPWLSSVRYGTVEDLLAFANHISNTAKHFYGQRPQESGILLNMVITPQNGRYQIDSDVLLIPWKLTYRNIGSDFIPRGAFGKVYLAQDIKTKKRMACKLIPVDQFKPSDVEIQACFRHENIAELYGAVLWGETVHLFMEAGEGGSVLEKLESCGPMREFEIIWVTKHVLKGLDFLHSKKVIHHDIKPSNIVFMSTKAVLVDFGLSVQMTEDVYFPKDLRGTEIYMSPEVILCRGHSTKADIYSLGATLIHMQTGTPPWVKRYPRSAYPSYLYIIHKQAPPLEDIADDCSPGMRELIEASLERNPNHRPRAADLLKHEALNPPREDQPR
PARAMETER_MEASURED: pIC50
Formally, pIC50 is defined as -log10 of the concentration c, with c in mol/L.

# annotated cases, reported pIC50 shown
{"columns": ["MOLECULE", "pIC50"],
 "data": [
  ["Cc1nc(F)ccc1[C@H](Nc1cc(Cl)c2ncc(C#N)c(NCC(C)(C)c3ccccc3)c2c1)c1cn(C2(C(F)(F)F)CC2)nn1 [Example 612]", 7.96],
  ["CC(C)(C)CNc1c(C#N)cnc2c(Cl)cc(N[C@H](c3cn(C4CC4)nn3)c3cccc4cccnc34)cc12 [Example 450]", 7.70],
  ["Cc1nc(Cl)ccc1[C@H](Nc1cc(Cl)c2ncc(C#N)c(NCC(C)(C)C)c2c1)c1cn(C2(C(F)F)CC2)nn1 [Example 718]", 8.05],
  ["CC(C)(C)CNc1c(C#N)cnc2c(C#N)cc(N[C@H](c3cn(C4(C(F)(F)F)CC4)nn3)c3cccc4c3CNC4)cc12 [Example 451]", 8.52],
  ["CC(C)n1ccc2c([C@H](Nc3cc(Cl)c4ncc(C#N)c(NCC(C)(C)C)c4c3)c3cn(C45CC(C4)C5)nn3)cccc2c1=O [Example 772]", 8.70]
]}

Documented pIC50 of Cc1nc(F)ccc1[C@H](Nc1cc(C#N)c2ncc(C#N)c(NCC(C)(C)C)c2c1)c1cn([C@@H]2C[C@@H]2F)nn1 [Example 622] : 9.00

====

We begin with a simple list: items and their reported IC50.
target: Human Cot (Homo sapiens (Human)); experiment: High Throughput Cot Biochemical Assay; details: IC50 HTRF, Cot HTRF (TR-FRET KinEASE) biochemical assay, 400 μM ATP
Value expressed in µM; do not type the unit.

{"columns": ["INPUT_SMILES", "UNIT_ABBREV", "OBSERVED_MEASUREMENT"],
 "data": [
  ["Cc1nc(F)ccc1[C@H](Nc1cc(C#N)c2ncc(C#N)c(NCC34CC(C3)C4)c2c1)c1cn(C2(C(F)F)CC2)nn1", "µM", 0.016]
]}

Input CC(C)(C)CNc1c(C#N)cnc2c(C#N)cc(N[C@H](c3cn(C4(C(F)(F)F)CC4)nn3)c3cccc4cnc(C#N)cc34)cc12 . Output IC50: 0.008

Documented IC50 of Cc1c([C@H](Nc2cc(Cl)c3ncc(C#N)c(NCC(C)(C)C)c3c2)c2cn(C3(C(F)(F)F)CC3)nn2)ccnc1Cl : 0.026

====

molecular target: Human Cot (Homo sapiens (Human)); experiment: High Throughput Cot Biochemical Assay; details: read-out: IC50 HTRF; Cot HTRF (TR-FRET) biochemical assay
A collection of compounds and their measured IC50
Express your answer in nM, writing the number without its unit.

{"columns": ["COMPOUND", "UNIT_ABBREV", "IC50"],
 "data": [
  ["N#Cc1cnc2c(Cl)cc(NC(c3cccnc3)c3ccccn3)cc2c1Nc1ccc(F)c(Cl)c1 (stereo not shown)", "nM", 182],
  ["N#Cc1cnc2c(Cl)cc(NC(c3ccccn3)c3ccccn3)cc2c1Nc1ccc(F)c(Cl)c1", "nM", 398],
  ["Cn1nccc1[C@H](Nc1cc(C#N)c2ncc(C#N)c(NCC(C)(C)C)c2c1)c1cn(C2(C(F)F)CC2)nn1", "nM", 4],
  ["Cc1scnc1[C@H](Nc1cc(C#N)c2ncc(C#N)c(NCC(C)(C)C)c2c1)c1cn(C2(C(F)F)CC2)nn1", "nM", 55],
  ["CC(C)(C)N1CCC(n2cc([C@@H](Nc3cc(Cl)c4ncc(C#N)c(Nc5ccc(F)c(Cl)c5)c4c3)c3cccnc3Cl)nn2)CC1", "nM", 4]
]}

get_value(item= Cc1nc(F)ccc1[C@H](Nc1cc(C#N)c2ncc(C#N)c(NCC(C)(C)C)c2c1)c1cn(CC(F)F)nn1 , readout=IC50) returns 2

# IC50 of CC(C)(C)N1CCC(n2cc([C@@H](Nc3cc(Cl)c4ncc(C#N)c(Nc5ccc(F)c(Cl)c5)c4c3)c3csc(N4CCOCC4)n3)nn2)CC1 = 7

====

test system: TNFα; experiment: Cot Monocyte TNFα Cell Based Assay; settings: Homo sapiens, Monocyte, read-out: EC50 TNF, LPS-stimulated human monocytes, TNFα
PARAMETER_MEASURED: EC50
# output: numeric value plus its unit

Below are worked cases with known answers.
{"columns": ["INPUT_SMILES", "ASSAY_TARGET", "EC50"],
 "data": [
  ["Cc1nc(Cl)ccc1[C@H](Nc1cc(Cl)c2ncc(C#N)c(Nc3ccc(F)c(Cl)c3)c2c1)c1cn(C2COC2)nn1", "TNFα", "212 nM"],
  ["Cn1nccc1[C@H](Nc1cc(Cl)c2ncc(C#N)c(Nc3ccc(Cl)c(Cl)c3F)c2c1)c1c[nH]nn1", "TNFα", "1190 nM"],
  ["Cn1ncc2cccc([C@H](Nc3cc(C#N)c4ncc(C#N)c(NCC(C)(C)C)c4c3)c3cn(C4(C(F)(F)F)CC4)nn3)c21", "TNFα", "73 nM"]
]}

The compound Cc1nc(F)ccc1[C@H](Nc1cc(Cl)c2ncc(C#N)c(N[C@H](CCC#N)c3ccccc3)c2c1)c1cn(C2CC2)nn1 , tested on TNFα, showed EC50 of 21 nM

The reported EC50 value, TNFα, for N#Cc1cnc2c(Cl)cc(N[C@@H](c3cccnc3)c3cn(CC(F)(F)F)nn3)cc2c1Nc1cnc(F)c(F)c1 reads 941 nM

Entry [2H][C@](Nc1cc(Cl)c2ncc(C#N)c(Nc3c(F)ccc(Cl)c3F)c2c1)(c1ccc(F)nc1)c1cn(C2CC2)nn1 , tested on TNFα, has a reported EC50 of 194 nM

Let me check: [2H][C@@](Nc1cc(Cl)c2ncc(C#N)c(NCC(C)(C)C)c2c1)(c1cn(C2CC2)nn1)c1cccnc1F , system TNFα, measured EC50 is 99 nM

====

tested on: TNFα; assay: Cot Monocyte TNFα Cell Based Assay; details: Homo sapiens, Monocyte, read-out: EC50 TNF, LPS-stimulated human monocytes, TNFα
PARAMETER_MEASURED: pEC50
Units for pEC50: none; it is -log10 of a concentration expressed in mol/L.

The following compounds have reported results that may help.
{"columns": ["COMPOUND", "pEC50"],
 "data": [
  ["C[C@@H](Nc1c(C#N)cnc2c(Cl)cc(N[C@@H](c3cccnc3)c3c[nH]nn3)cc12)c1ccccc1", 6.12],
  ["CC(C)(C)CNc1c(C#N)cnc2c(Cl)cc(N[C@H](c3cn(C4CC4)nn3)c3cccc4cccnc34)cc12", 6.45],
  ["[2H]C(Nc1cc(Cl)c2ncc(C#N)c(NCC(C)(C)C)c2c1)(c1cn(C2CC2)nn1)c1cccnc1Cl (stereo not shown)", 6.84]
]}

Here is another compound to look at.
Value of measured pEC50 for the entry Cc1nc(F)ccc1[C@H](Nc1cc(Cl)c2ncc(C#N)c(NCC(C)(C)C)c2c1)c1cn(C2(CC(F)(F)F)CC2)nn1 : 7.23

====

tested on: TNFα; assay: Cot Monocyte TNFα Cell Based Assay; conditions: Homo sapiens, Monocyte, read-out: EC50 TNF, LPS-stimulated human monocytes, TNFα
PARAMETER_MEASURED: EC50 (nM)
Just the number please, in nM, no unit attached.

// worked examples, EC50 included
{"columns": ["INPUT_SMILES", "ASSAY_TARGET", "OBSERVED_MEASUREMENT"],
 "data": [
  ["Cc1ncsc1[C@H](Nc1cc(Cl)c2ncc(C#N)c(Nc3cccc(Cl)c3F)c2c1)c1cn(C2CCN(C(C)(C)C)CC2)nn1", "TNFα", 66],
  ["CC[C@@H](Nc1c(C#N)cnc2c(C#N)cc(N[C@H](c3cn(C4CC4)nn3)c3cccc4ncsc34)cc12)c1ccccc1", "TNFα", 76],
  ["CC(C)(C)ONc1c(C#N)cnc2c(I)cc(N[C@H](c3cn(C4CC4)nn3)c3cccc4ncsc34)cc12", "TNFα", 1000]
]}

Pending compound:
Consider CC(C)(C)N1CCC(n2cc([C@@H](Nc3cc(Cl)c4ncc(C#N)c(NC5CCCCCC5)c4c3)c3cccnc3)nn2)CC1 . Its measured EC50 is 1060

====

molecular target: Human Cot (Homo sapiens (Human)); experiment: High Throughput Cot Biochemical Assay; conditions: read-out: IC50 HTRF; Cot HTRF (TR-FRET) biochemical assay
PARAMETER_MEASURED: IC50 (nM)
# unit: nM | format: bare number

Past entries and their recorded results:
{"columns": ["INPUT_SMILES", "UNIT_ABBREV", "IC50"],
 "data": [
  ["CC1(C)CC(n2cc([C@@H](Nc3cc(Cl)c4ncc(C#N)c(Nc5ccc(F)c(Cl)c5)c4c3)c3cccnc3)nn2)CC(C)(C)N1", "nM", 8],
  ["CC[C@@H](Nc1c(C#N)cnc2c(Cl)cc(N[C@@H](c3cccnc3)c3cn(C4CCN(C(C)(C)C)CC4)nn3)cc12)c1ccccc1", "nM", 2]
]}

# input for lookup
Briefly, IC50 measured for CCC(F)(F)Cn1cc([C@@H](Nc2cc(Cl)c3ncc(C#N)c(NCC(C)(C)C)c3c2)c2ccc(F)nc2C)nn1 : 11
